- system-tested: UniProtKB O14649
- Sequence (O14649 whole entry): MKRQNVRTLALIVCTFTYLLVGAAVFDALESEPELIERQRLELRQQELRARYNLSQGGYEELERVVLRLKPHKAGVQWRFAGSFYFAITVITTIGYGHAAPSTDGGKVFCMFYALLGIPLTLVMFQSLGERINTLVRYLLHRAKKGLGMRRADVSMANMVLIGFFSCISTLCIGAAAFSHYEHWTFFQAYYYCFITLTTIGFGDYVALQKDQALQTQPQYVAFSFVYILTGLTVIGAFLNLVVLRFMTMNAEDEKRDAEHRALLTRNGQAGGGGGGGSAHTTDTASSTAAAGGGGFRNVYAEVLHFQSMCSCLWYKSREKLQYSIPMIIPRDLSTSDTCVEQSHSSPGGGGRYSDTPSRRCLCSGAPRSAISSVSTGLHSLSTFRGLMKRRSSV
- assay-notes: Inhibition of recombinant TASK-1 in stably transfected CHO cells, KCl-induced depolarization, voltage-sensitive dye (B-2)
- Assay type: cell-based
- Design: expressed in transfected cells; host or cells: stably transfected CHO cells
- assay-setup: depolarization induced by 40 mM potassium chloride, some mean values from multiple determinations
molecules and their reported pIC50
By convention, pIC50 is the negative base-10 log of a molar concentration.

These recorded examples may help you get a feel for the data.
CC(C)c1csc(C(=O)N2C3CCC2CN(Cc2c(-c4ccc(Cl)cc4)nc4ccccn24)C3)n1 : 6.04
CCOc1cccc(C(=O)N2CC3CCC2CN3Cc2c(-c3ccc(Cl)cc3)nc3ccccn23)c1 (single isomer, unassigned) : 6.33

QUERY: For COc1ccc(F)c(C(=O)N2CC3CCC2CN3Cc2c(-c3ccc(C(C)C)nc3)nc3ccccn23)n1 (single isomer, unassigned) [Example 127] , what is its reported pIC50?
RESULT: 5.02
